Cited source for all entries: paper PMC6838674

- system.under.test: T1, apelin receptor (Rattus norvegicus), Q9JHG3
- T1 chain: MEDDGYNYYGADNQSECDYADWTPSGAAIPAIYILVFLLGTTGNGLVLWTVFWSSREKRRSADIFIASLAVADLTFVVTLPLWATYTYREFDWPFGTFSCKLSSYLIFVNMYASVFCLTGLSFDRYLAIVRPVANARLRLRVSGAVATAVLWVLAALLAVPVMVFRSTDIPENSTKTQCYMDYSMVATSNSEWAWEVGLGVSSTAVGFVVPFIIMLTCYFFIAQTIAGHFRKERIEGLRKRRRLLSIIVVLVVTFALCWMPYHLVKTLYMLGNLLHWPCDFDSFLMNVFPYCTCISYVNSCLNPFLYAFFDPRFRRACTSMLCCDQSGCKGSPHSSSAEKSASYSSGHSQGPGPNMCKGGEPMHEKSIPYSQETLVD
- protocol.notes: radioligand competition binding, heart homogenate
- condition.label: modification not given
Ends that are not written are not given here.
measurement.name: pKi
Please report pKi as the negative decimal logarithm of the molar concentration, giving only the number.

## Task Return reported pKi; argument: LVQPRGSRNGPGPWQGGRRKFRRQRPRASHKGPMPF (not fully specified) [apelin-36-[L28A]]
## Result 9.51
